Biological target: Btk (Rattus norvegicus, UniProt Q5S255)
Sequence (Q5S255 1-660): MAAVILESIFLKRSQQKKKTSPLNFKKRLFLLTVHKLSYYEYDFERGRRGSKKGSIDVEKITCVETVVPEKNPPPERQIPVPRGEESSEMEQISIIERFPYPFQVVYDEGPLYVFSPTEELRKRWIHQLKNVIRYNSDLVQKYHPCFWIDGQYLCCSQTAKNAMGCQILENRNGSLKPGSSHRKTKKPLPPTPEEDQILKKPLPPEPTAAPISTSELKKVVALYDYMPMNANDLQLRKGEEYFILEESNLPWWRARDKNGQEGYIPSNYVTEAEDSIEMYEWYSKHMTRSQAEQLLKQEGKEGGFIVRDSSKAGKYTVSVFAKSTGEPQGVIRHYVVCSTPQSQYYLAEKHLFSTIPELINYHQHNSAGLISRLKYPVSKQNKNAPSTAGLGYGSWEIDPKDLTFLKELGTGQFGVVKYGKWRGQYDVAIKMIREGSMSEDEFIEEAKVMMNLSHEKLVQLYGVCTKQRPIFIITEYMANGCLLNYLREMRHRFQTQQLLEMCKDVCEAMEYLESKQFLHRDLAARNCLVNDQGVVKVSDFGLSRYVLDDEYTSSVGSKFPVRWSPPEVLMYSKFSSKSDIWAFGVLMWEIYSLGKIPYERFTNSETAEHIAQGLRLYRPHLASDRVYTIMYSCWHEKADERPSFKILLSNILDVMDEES
Assay: Inhibition of Btk activity in blood (in vitro B cell activation assay, CD86, rat whole blood)
Settings: Lewis rat whole blood diluted to 50%, anti-rat IgM + rat IL-4, 24 hours, CD86 on CD45RA positive B cells
MEASUREMENT_NAME: pIC50
Answers are plain numbers, as −log10 of the molar value.

{"SMILES_REPR": "CC#CC(=O)N1CCC[C@H]1COc1c(N)ncnc1-c1cc(F)cc(NC(=O)c2ccc(C3CC3)cc2F)c1C", "SYSTEM_TESTED": "Btk (Rattus norvegicus, UniProt Q5S255)", "MEASUREMENT_NAME": "pIC50", "ENDPOINT_RESULT": 7.24}
{"SMILES_REPR": "C=CC(=O)N1C[C@H](C#N)C[C@H]1COc1c(N)ncnc1-c1cc(F)cc(NC(=O)c2ccc(C3CC3)cc2F)c1C", "SYSTEM_TESTED": "Btk (Rattus norvegicus, UniProt Q5S255)", "MEASUREMENT_NAME": "pIC50", "ENDPOINT_RESULT": 6.75}
{"SMILES_REPR": "C=CC(=O)N1C[C@@H](C#N)C[C@H]1COc1c(N)ncnc1-c1cc(F)cc(NC(=O)c2ccc(C3CC3)cc2F)c1C", "SYSTEM_TESTED": "Btk (Rattus norvegicus, UniProt Q5S255)", "MEASUREMENT_NAME": "pIC50", "ENDPOINT_RESULT": 7.10}
{"SMILES_REPR": "C=CC(=O)N[C@@H](C)COc1c(N)ncnc1-c1cc(F)cc(NC(=O)c2ccc(C3CC3)cc2F)c1C", "SYSTEM_TESTED": "Btk (Rattus norvegicus, UniProt Q5S255)", "MEASUREMENT_NAME": "pIC50", "ENDPOINT_RESULT": 6.61}
{"SMILES_REPR": "C=CC(=O)N(C)[C@@H](C)COc1c(N)ncnc1-c1cc(F)cc(NC(=O)c2ccc(C3CC3)cc2F)c1C", "SYSTEM_TESTED": "Btk (Rattus norvegicus, UniProt Q5S255)", "MEASUREMENT_NAME": "pIC50", "ENDPOINT_RESULT": 6.87}
{"SMILES_REPR": "C=CC(=O)N1C[C@H](OC)C[C@H]1COc1c(N)ncnc1-c1cc(F)cc(N2CCc3cc(C4CC4)ccc3C2=O)c1CO", "SYSTEM_TESTED": "Btk (Rattus norvegicus, UniProt Q5S255)", "MEASUREMENT_NAME": "pIC50", "ENDPOINT_RESULT": 7.48}

For reference, reported pIC50 for `CC#CC(=O)N1C[C@H](OC)C[C@H]1COc1c(N)ncnc1-c1cc(F)cc(NC(=O)c2ccc(C3CC3)cc2F)c1C` stands at 7.12

---

Molecular target: full-length human recombinant BTK (Homo sapiens (Human), UniProt Q06187)
Sequence (Q06187 whole entry): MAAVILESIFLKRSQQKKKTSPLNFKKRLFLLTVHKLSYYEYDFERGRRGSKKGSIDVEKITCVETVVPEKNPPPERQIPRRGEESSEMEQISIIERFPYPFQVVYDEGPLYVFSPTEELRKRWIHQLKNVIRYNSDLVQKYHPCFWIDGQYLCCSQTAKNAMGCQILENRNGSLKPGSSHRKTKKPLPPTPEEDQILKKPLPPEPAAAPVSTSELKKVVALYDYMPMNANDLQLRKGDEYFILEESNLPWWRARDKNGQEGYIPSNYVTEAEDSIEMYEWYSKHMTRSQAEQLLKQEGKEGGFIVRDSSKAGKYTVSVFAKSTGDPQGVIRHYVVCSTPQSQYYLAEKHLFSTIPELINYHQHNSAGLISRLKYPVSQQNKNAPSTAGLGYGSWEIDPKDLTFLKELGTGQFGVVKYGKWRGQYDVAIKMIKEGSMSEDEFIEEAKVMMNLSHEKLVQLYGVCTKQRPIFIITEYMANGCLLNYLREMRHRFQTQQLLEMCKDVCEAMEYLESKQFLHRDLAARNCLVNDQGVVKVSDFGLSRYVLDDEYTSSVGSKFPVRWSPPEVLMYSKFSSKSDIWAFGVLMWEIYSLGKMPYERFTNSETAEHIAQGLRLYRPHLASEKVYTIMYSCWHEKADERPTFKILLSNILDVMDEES
Assay: Inhibition of Btk enzymatic activity (biochemical enzyme assay, Caliper)
Conditions: 6.4 nM enzyme solution, 164 μM ATP solution, 30° C., 60 minutes
MEASUREMENT_NAME: pIC50
Give bare numbers, as −log10 of the molar value.

{"SMILES_REPR": "C=CC(=O)N1CC[C@H](OC)[C@H]1COc1c(N)ncnc1-c1cc(F)cc(NC(=O)c2ccc(C3CC3)cc2F)c1C", "pIC50": 8.70}
{"SMILES_REPR": "CC#CC(=O)N[C@@H](C)COc1c(N)ncnc1-c1cc(F)cc(NC(=O)c2ccc(C3CC3)cc2F)c1C", "pIC50": 9.00}
{"SMILES_REPR": "C=CC(=O)N1C[C@H](C#N)C[C@H]1COc1c(N)ncnc1-c1cc(F)cc(NC(=O)c2ccc(C3CC3)cc2F)c1C", "pIC50": 9.00}
{"SMILES_REPR": "C=CC(=O)N(CCF)CCOc1c(N)ncnc1-c1cc(F)cc(NC(=O)c2ccc(C3CC3)cc2F)c1C", "pIC50": 9.00}
{"SMILES_REPR": "C#CC(=O)N1CC[C@H]1COc1c(N)ncnc1-c1cc(F)cc(NC(=O)c2ccc(C3CC3)cc2F)c1C", "pIC50": 8.70}

I would be grateful if you could provide pIC50 for each of the following entries.
1. C/C=C/C(=O)N1CC(Oc2c(N)ncnc2-c2cc(F)cc(NC(=O)c3ccc(C4CC4)cc3F)c2C)C1
2. C=CC(=O)N1C[C@H](OC)C[C@H]1COc1c(N)ncnc1-c1cc(F)cc(NC(=O)c2ccc(C3CC3)cc2F)c1C

Return:
[7.42, 9.40]
